assay_details: TIMS collisional cross section (CCS, N2) of the lipid ion; higher = larger ion cross section
details: sample type: HeLa; ionization mode: positive; one isomer drawn
endpoint: TIMS collisional cross section (Å²)
Return type: number; implicit unit Å².

Consider the compound CC/C=C\C/C=C\C/C=C\C/C=C\C/C=C\C/C=C\CCC(=O)O[C@H](CO/C=C\CCCCCCCCCCCCCCCC)COP(=O)([O-])OCC[N+](C)(C)C [PC P- 18:0@_22:6] (ion (formula + adduct): [C48H84NO7P+H] 1+) and give its measured TIMS collisional cross section. 297.1

Moving on to the next compound: CCCCCCCC/C=C\CCCCCCCC(=O)O[C@H](COC(=O)CCCCCCCCCCCCCCCCC)COP(=O)(O)OCCN [PE 18:0_18:1] (ion (formula + adduct): [C41H80NO8P+H] 1+) 282.2

Moving on to the next compound: CCCCCCCCCCCCCCCC(=O)OC[C@@H](COC(=O)CCCCCCCCCCCC)OC(=O)CCCCCCCCCCCCCC [TG 13:0_15:0_16:0] (ion (formula + adduct): [C47H90O6+NH4] 1+) 301.7

Moving on to the next compound: CC/C=C\C/C=C\C/C=C\C/C=C\C/C=C\C/C=C\CCC(=O)OC[C@@H](COC(=O)CCCCCCC/C=C\CCCCCCCC)OC(=O)CCCCCCC/C=C\CCCCCCCCC [TG 18:1_19:1_22:6] (ion (formula + adduct): [C62H104O6+NH4] 1+) 334.6

###

I'd be grateful if you could share measured TIMS collisional cross section for these entries.
assay_details: TIMS collisional cross section (CCS, N2) of the lipid ion; higher = larger ion cross section
details: sample type: HeLa; ionization mode: positive; one isomer drawn
Return type: number; implicit unit Å².

Consider the compound CCCCCCCC/C=C\CCCCCCCC(=O)OC[C@@H](COC(=O)CCCCCCCCCCCCCCCC)OC(=O)CCCCCCCCCCCCCCCCC [TG 17:0_18:0_18:1] (ion (formula + adduct): [C56H106O6+NH4] 1+) and give its measured TIMS collisional cross section. 327.3

Moving on to the next compound: CCCCCCCC/C=C\CCCCCCCC(=O)OC[C@@H](COC(=O)CCCCCCCCCCCCCCC)OC(=O)CCCCCCC/C=C\CCCCCCCC [TG 16:0_18:1_18:1] (ion (formula + adduct): [C55H102O6+NH4] 1+) 322

Moving on to the next compound: CCCCC/C=C\C/C=C\C/C=C\C/C=C\CCCC(=O)O[C@H](COC(=O)CCCCCCCCCCCCCCCCC)COP(=O)(O)OCCN [PE 18:0_20:4@] (ion (formula + adduct): [C43H78NO8P+H] 1+) 284.1

###

assay_details: TIMS collisional cross section (CCS, N2) of the lipid ion; higher = larger ion cross section
details: sample type: plasma; ionization mode: positive; one isomer drawn
endpoint: TIMS collisional cross section (Å²)
Return type: number; implicit unit Å².

Consider the molecule CCCCC/C=C\C/C=C\C/C=C\CCCCC(=O)OC[C@@H](COC(=O)CCCCCCCCCCCCCC)OC(=O)CCCCCCC/C=C\C/C=C\CCCCC [TG 15:0_18:2_18:3] (ion (formula + adduct): [C54H94O6+NH4] 1+) and give its measured TIMS collisional cross section. 312.8

Moving on to the next molecule: CCCCC/C=C\C/C=C\C/C=C\C/C=C\C/C=C\CCC(=O)O[C@H](COC(=O)CCCCCCCCCCCCCCCCC)COP(=O)([O-])OCC[N+](C)(C)C [PC 18:0@_22:5] (ion (formula + adduct): [C48H86NO8P+H] 1+) 299.3

Moving on to the next molecule: CCCCC/C=C\C/C=C\C/C=C\CCCCCCC(=O)O[C@H](COC(=O)CCCCCCCCC/C=C\CCCCCCCC)COP(=O)([O-])OCC[N+](C)(C)C [PC 20:1@_20:3] (ion (formula + adduct): [C48H88NO8P+H] 1+) 301.7

Moving on to the next molecule: CCCCC/C=C\C[C@H](O)/C=C/C=C\C/C=C\CCCC(=O)O[C@H](COC(=O)CCCCCCCCCCCCCCC)COP(=O)([O-])OCC[N+](C)(C)C [Oxidized PC 16:0@_20:4] (ion (formula + adduct): [C44H80NO9P+H] 1+) 289.9

Every entry's value here was drawn from the supplement of paper PMC6965134.
